Target: T1, EBOV VLP (Ebola virus (EBOV), UniProt Q05320 33-676)
T1 sequence: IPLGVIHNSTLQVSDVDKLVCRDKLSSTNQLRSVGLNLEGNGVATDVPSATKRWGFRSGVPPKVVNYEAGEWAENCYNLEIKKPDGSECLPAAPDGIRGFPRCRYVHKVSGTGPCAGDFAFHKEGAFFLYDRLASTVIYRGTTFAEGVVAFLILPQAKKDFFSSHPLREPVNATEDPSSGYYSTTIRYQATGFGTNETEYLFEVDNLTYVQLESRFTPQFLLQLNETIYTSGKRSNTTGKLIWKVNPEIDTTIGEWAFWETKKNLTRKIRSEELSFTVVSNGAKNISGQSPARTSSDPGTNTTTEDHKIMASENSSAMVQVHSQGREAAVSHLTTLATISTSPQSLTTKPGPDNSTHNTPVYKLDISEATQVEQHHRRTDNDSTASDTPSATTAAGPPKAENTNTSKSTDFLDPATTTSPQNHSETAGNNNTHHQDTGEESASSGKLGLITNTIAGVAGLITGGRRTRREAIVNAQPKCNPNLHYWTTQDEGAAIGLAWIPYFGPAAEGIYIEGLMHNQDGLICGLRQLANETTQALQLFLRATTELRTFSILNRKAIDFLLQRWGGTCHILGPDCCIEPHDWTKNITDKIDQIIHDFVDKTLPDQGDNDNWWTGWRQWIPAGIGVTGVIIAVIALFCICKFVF
Assay: ELISA
Mark 1.0 only for EC50 values smaller than 0.5 nM; exact matches and larger values are 0.0.

Worked set:
INSERT INTO results (binder, category) VALUES
  ('FVM26 (antibody, V domains shown) VH: QVQLVQSGAEVKRPGESLRISCKTSGYTFTDYWIAWVRQMPGKGLEWMGSIYPGDSETKYNPSFQGHVTISADKSVTTTYLKWSRLKASDTATYYCVKGSETWGQGVLVTVSS VL: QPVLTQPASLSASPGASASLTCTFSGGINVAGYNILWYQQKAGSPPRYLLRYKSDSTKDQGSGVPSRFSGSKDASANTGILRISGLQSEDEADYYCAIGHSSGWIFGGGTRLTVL', 1.0),
  ('FVM23 (antibody, V domains shown) VH: QVQLVQSGAEVKRPGESLTISCKTSGYSFTGSWISWVRQMPGKGLEWMGSIYPGDSDTTYNPSFQGHVTISADKSISTAYLQWTSLKASDTATYYCVKGSETWGQGVLVTVSS VL: SYELTQPASLSASPGASASLTCTFSGGINVAGYNILWYQQKAGSPPRYLLRYKSDSTKDQGSGVPSRFSGSKDASANTGILRISGLQSEDEADYYCAIGHSSGLIFGAGTRLTVL', 1.0),
  ('FVM15 (antibody, V domains shown) VH: QVQLVQSGAEVKRPGESLRISCKTSGYTFTDYWIAWVRQMPGKGLEWMGSIYPGDSETKYNPSFQGHVTISADKSVTTTYLKWSRLKASDTATYYCVKGSETWGQGVLVTVSS VL: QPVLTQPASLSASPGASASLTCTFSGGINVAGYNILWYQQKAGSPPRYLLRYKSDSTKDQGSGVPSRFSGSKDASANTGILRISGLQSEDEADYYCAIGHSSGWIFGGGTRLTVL', 1.0);

In: Strictly below 0.5 nM in EC50? FVM32 (antibody, V domains shown) VH: QVQLVQSGAEVKRPGESLRISCKTSGYSFTDSWVAWVRQMPGKGLEWLGSIYPGDSDTRYSPSFQGQVTISADKSITTAYLKWSSLKASDTATYYCVKGSETWGQGVLVTVSS VL: QPVLTQPASLSASPGASASLTCTFNGGITVPGYDILWYQQKSGSPPRYLLRYKSDSTKDQGSGVPSRFSGSKDASTNTGILRISGLQSEDEADYYCAIGHSSGWIFGGGTRLTVL
Out: 0.0

In: Strictly below 0.5 nM in EC50? FVM21 (antibody, V domains shown) VH: EVQLVESGAEVKRPGESLTISCKTSGYSFTDSWVAWVRQMPGKGLEWLGSIYPGDSETKYNPSFQGHVTISADKSISTTYLQWSSLRASDTATYYCVKGADDWGPGLLVTVSS VL: SSELTQPASLSASPGASASLTCTFSGGINVAGYNILWYQQKAGSPPRYLLRYKSDSDKGQGSGVPSRFSGSKDASANTGILRISGLQSEDEADYYCAIGHSSGWIFGGGTRLTVL
Out: 1.0

In: Strictly below 0.5 nM in EC50? FVM27 (antibody, V domains shown) VH: EVQLVQSGAEVKRPGESLKISCKTSGYSFASSWISWVRQMPGKGLEWMGAIDPSDSATRYSPSFQGQVTISADKSISTAYLQWSSLKASDTATYYCVKGSETWGQGVLVTVSS VL: QPVLTQPASLSASPGASASLTCTFSGGINVAGYNILWYQQKAGSPPRYLLRYKSDSTKDQGSGVPSRFSGSKDASANTGILRISGLQSEDEADYYCAIGHSSGWIFGGGTRLIVL
Out: 1.0

In: Strictly below 0.5 nM in EC50? FVM18 (antibody, V domains shown) VH: QVQLVQSGAEVKRPGESLKISCKTSGYSFTNIWISWVRQMPGKGLEWLGSIYPGDSETKYNPSFQGHVTISADKSVTTTYLKWSSLKASDTATYYCVKGSETWGQGVLVTVSS VL: NFMLTQPASLSASPGASASLTCTFSGGINVAGYHILWYQQKPGSPPRYLLRYKSDSEKDQGSGVPSRFSGSKDASANRGILRISGLQSEDEADYYCAIGHSSSGWVFGGGTRLTVL
Out: 0.0

In: Strictly below 0.5 nM in EC50? FVM01P (antibody, V domains shown) VH: QVQLQESGPGLVKPSETLSLTCTVSGASISNYRWNWIRQPPGKGLEWIGEINGYSGSTNYNPSLKSRVTISKDASKNQFSLKLTSVTAADTAVYYCPIIGGFTLEWFDVWGPGVLVTVSS VL: DVVLTQSPSSLSASVGDRVTITCRASQGIRNYLNWYQQKPRKAPKLLIYAASSLQSGVPSRFSGSGSGTEFTLTISSLQAEDFATYYCLQGYRTPFTFGPGTKLDIKR
Out: 1.0

In: Strictly below 0.5 nM in EC50? FVM33 (antibody, V domains shown) VH: QVQLVQSGAEVKRPGESLKISCKTSRYSFTSSWIGWVRQMPGKGLEWLGSIYPGDSDTRYNPSFQGHVTISADKSVTTTYLKWSSLKASDTATYYCVKGSETWGQGVLVTVSS VL: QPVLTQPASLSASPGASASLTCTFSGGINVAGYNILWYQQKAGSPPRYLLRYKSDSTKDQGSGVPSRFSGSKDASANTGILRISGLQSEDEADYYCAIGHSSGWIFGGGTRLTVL
Out: 1.0

In: Strictly below 0.5 nM in EC50? FVM14 (antibody, V domains shown) VH: EVQLVQSGAEVKRPGESLKISCQTSGYSFTSTWITWVRQMPGKGLEWLGSIYPGDSETKYNPSFQGHVTISADKSISTTYLQWNSLKASDTATYYCVKGSETWGQGVLVTVSS VL: QAVVTQPASLSASPGASASLTCTFSGGINVAGYNILWYQQKAGSPPRYLLRYKSDSTKDQGSGVPSRFSGSKDASANTGILRISGLQSEDEADYYCAIGHSSGWIFGGGTRLTVL
Out: 0.0

The reported measurements were obtained from patent US20170334973A1.
